meta.source: ChEMBL document CHEMBL1135436

- measured_on: Melanocyte-stimulating hormone receptor (Mus musculus, UniProt Q01727)
- Sequence (Q01727 whole entry): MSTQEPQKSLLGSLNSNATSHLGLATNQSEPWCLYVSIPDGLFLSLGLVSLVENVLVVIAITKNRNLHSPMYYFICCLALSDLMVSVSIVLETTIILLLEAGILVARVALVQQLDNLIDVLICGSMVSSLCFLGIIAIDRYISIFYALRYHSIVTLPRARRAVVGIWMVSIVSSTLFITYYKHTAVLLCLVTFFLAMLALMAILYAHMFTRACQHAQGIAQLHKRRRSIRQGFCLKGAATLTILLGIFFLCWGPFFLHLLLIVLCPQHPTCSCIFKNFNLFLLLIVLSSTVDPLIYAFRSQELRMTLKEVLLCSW
- assay_comment: In vitro activation of mouse recombinant Melanocortin-1 receptor.
measurement_name: EC50 (µM)

Below: 3 compounds and their reported EC50.
smiles_input: CC(=O)N[C@@H](Cc1ccc2ccccc2c1)C(=O)N[C@H](Cc1ccccc1)C(=O)N[C@@H](CCCN=C(N)N)C(=O)N[C@@H](Cc1c[nH]c2ccccc12)C(N)=O
EC50, µM: 9.5

smiles_input: CC(=O)N[C@H](Cc1c[nH]c2ccccc12)C(=O)N[C@H](Cc1ccccc1)C(=O)N[C@@H](CCCNC(=N)N)C(=O)N[C@@H](Cc1c[nH]c2ccccc12)C(N)=O
EC50, µM: 6.6

smiles_input: CC(=O)N[C@H](Cc1ccc2ccccc2c1)C(=O)N[C@H](Cc1ccccc1)C(=O)N[C@@H](CCCNC(=N)N)C(=O)N[C@@H](Cc1c[nH]c2ccccc12)C(N)=O
EC50, µM: 7.1

(I) CC(=O)N[C@@H](Cc1c[nH]c2ccccc12)C(=O)N[C@H](Cc1ccccc1)C(=O)N[C@@H](CCCN=C(N)N)C(=O)N[C@@H](Cc1c[nH]c2ccccc12)C(N)=O
(II) CC(=O)N[C@@H](C)C(=O)N[C@H](Cc1ccccc1)C(=O)N[C@@H](CCCN=C(N)N)C(=O)N[C@@H](Cc1c[nH]c2ccccc12)C(N)=O
(III) CC(=O)N[C@H](Cc1ccccc1)C(=O)N[C@H](Cc1ccccc1)C(=O)N[C@@H](CCCNC(=N)N)C(=O)N[C@@H](Cc1c[nH]c2ccccc12)C(N)=O
Query string: Task field, ranking: reported EC50, descending order. Answer by writing out the labels in the requested order.
Result string: III, I, II
